B1: library; numbered along this chain (parent)
chain: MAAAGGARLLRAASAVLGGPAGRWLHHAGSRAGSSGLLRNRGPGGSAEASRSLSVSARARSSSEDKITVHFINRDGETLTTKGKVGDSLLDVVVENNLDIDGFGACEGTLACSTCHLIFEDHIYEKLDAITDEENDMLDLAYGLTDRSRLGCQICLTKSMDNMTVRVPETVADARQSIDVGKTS

- Variants of: B1
- test_description: scaled log2 fold change in cell abundance, elesclomol vs control (0 = silent mean, 1 = nonsense mean) (scaled log2 ratio); higher = higher viability under elesclomol (loss of FDX1 cuproptosis function);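 further: variant abundance is its share of total variant reads in each endpoint sample, from next-generation sequencing of the integrated ORF PCR-amplified out of genomic DNA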
- condition_notes: with ABC1 FDX1 KO; elesclomol 5 nM; glucose 10 mM; 14 days

- change: "D146P"
  scaled log2 fold change: -0.219
- change: "E120D"
  scaled log2 fold change: 0.203
- change: "R51S"
  scaled log2 fold change: 0.00287
- change: "T68N"
  scaled log2 fold change: 0.00412
- change: "T114A"
  scaled log2 fold change: -0.0113
- change: "H116N"
  scaled log2 fold change: -0.0564
- change: "S52Q"
  scaled log2 fold change: 0.212
- change: "V165I"
  scaled log2 fold change: -0.183
- change: "L156E"
  scaled log2 fold change: 1.11
- change: "R39P"
  scaled log2 fold change: -0.972
- change: "L150N"
  scaled log2 fold change: 0.899
- change: "L89W"
  scaled log2 fold change: 0.552
- change: "S63L"
  scaled log2 fold change: 0.0558
- change: "S56A"
  scaled log2 fold change: 0.574
- change: "S52M"
  scaled log2 fold change: 0.212
- change: "E48W"
  scaled log2 fold change: 0.73
- change: "V180C"
  scaled log2 fold change: 0.235
- change: "R51F"
  scaled log2 fold change: 0.269
- change: "G33T"
  scaled log2 fold change: 0.154
- change: "I154R"
  scaled log2 fold change: 1.01
- change: "K66D"
  scaled log2 fold change: -0.097
- change: "A15L"
  scaled log2 fold change: -0.153

Recorded values, source the supplement of paper PMC12855868.
